Assay: Cytotoxicity against human K562-Tax cells assessed as inhibition of cell growth incubated for 72 hrs by MTS assay
Format: functional, cell-based
Hi! Could you tag entries with IC50 below 10 µM as 1.0, and those at or above as 0.0? Much appreciated.

Before answering, review these 5 worked examples.
# strict comparison: is reported IC50 < 10 µM? input = CC1(C)[C@@H](O)CC[C@]2(C)[C@H]3CC[C@@H]4[C@H]5[C@H](c6cc(C#N)c(C#N)c(-c7ccccc7)c6)CC[C@]5(C(=O)O)CC[C@@]4(C)[C@]3(C)CC[C@@H]12
1.0

# strict comparison: is reported IC50 < 10 µM? input = Cc1cc([C@@H]2CC[C@]3(C(=O)O)CC[C@]4(C)[C@H](CC[C@@H]5[C@@]6(C)CC[C@H](O)C(C)(C)[C@@H]6CC[C@]54C)[C@@H]23)cc2c1C(=O)NC2=O
1.0

# strict comparison: is reported IC50 < 10 µM? input = COc1ccc(N2C(=O)c3cc([C@@H]4CC[C@]5(C(=O)O)CC[C@]6(C)[C@H](CC[C@@H]7[C@@]8(C)CC[C@H](O)C(C)(C)[C@@H]8CC[C@]76C)[C@@H]45)cc(-c4ccccc4)c3C2=O)cc1
0.0

# strict comparison: is reported IC50 < 10 µM? input = CC1(C)[C@@H](O)CC[C@]2(C)[C@H]3CC[C@@H]4[C@H]5[C@H](c6ccc7c(c6)C(=O)N(c6ccc(C#N)cc6)C7=O)CC[C@]5(C(=O)O)CC[C@@]4(C)[C@]3(C)CC[C@@H]12
0.0

# strict comparison: is reported IC50 < 10 µM? input = CC(=O)OC[C@]12CC[C@@H](c3ccc4c(c3)C(=O)NC4=O)[C@@H]1[C@H]1CC[C@@H]3[C@@]4(C)CC[C@H](OC(C)=O)C(C)(C)[C@@H]4CC[C@@]3(C)[C@]1(C)CC2
0.0

Continuing:
# strict comparison: is reported IC50 < 10 µM? input = CC1(C)[C@@H](O)CC[C@]2(C)[C@H]3CC[C@@H]4[C@H]5[C@H](c6ccc7c(c6)C(=O)N(c6ccccc6)C7=O)CC[C@]5(C(=O)O)CC[C@@]4(C)[C@]3(C)CC[C@@H]12
0.0

# strict comparison: is reported IC50 < 10 µM? input = COc1ccc(N2C(=O)c3ccc([C@@H]4CC[C@]5(CO)CC[C@]6(C)[C@H](CC[C@@H]7[C@@]8(C)CC[C@H](OC(C)=O)C(C)(C)[C@@H]8CC[C@]76C)[C@@H]45)cc3C2=O)cc1
0.0

###

Assay: Cytotoxicity against human MRC5 cells assessed as inhibition of cell growth incubated for 72 hrs by MTS assay
Assay type: toxicity, cell-based
Hi! Could you tag entries with IC50 at 72 h below 30 µM as Met, and those at or above as Not met? Much appreciated.

Before answering, review these 9 worked examples.
# strict comparison: is reported IC50 at 72 h < 30 µM? input = CC(=O)O[C@H]1CC[C@]2(C)[C@H]3CC[C@@H]4[C@H]5[C@H](c6ccc7c(c6)C(=O)NC7=O)CC[C@]5(CO)CC[C@@]4(C)[C@]3(C)CC[C@H]2C1(C)C
Met

# strict comparison: is reported IC50 at 72 h < 30 µM? input = CC1(C)[C@@H](O)CC[C@]2(C)[C@H]3CC[C@@H]4[C@H]5[C@H](c6cc7c(c(-c8ccccc8)c6)C(=O)NC7=O)CC[C@]5(C(=O)O)CC[C@@]4(C)[C@]3(C)CC[C@@H]12
Not met

# strict comparison: is reported IC50 at 72 h < 30 µM? input = CC1(C)[C@@H](O)CC[C@]2(C)[C@H]3CC[C@@H]4[C@H]5[C@H](c6cc7c(c(-c8ccccc8)c6)C(=O)N(c6ccc(N)cc6)C7=O)CC[C@]5(C(=O)O)CC[C@@]4(C)[C@]3(C)CC[C@@H]12
Met

# strict comparison: is reported IC50 at 72 h < 30 µM? input = CC(=O)OC[C@]12CC[C@@H](c3cc4c(c(-c5ccccc5)c3)C(=O)NC4=O)[C@@H]1[C@H]1CC[C@@H]3[C@@]4(C)CC[C@H](OC(C)=O)C(C)(C)[C@@H]4CC[C@@]3(C)[C@]1(C)CC2
Not met

# strict comparison: is reported IC50 at 72 h < 30 µM? input = CC(=O)O[C@H]1CC[C@]2(C)[C@H]3CC[C@@H]4[C@H]5[C@H](c6ccc7c(c6)C(=O)N(c6cc[nH]n6)C7=O)CC[C@]5(C(=O)O)CC[C@@]4(C)[C@]3(C)CC[C@H]2C1(C)C
Met

# strict comparison: is reported IC50 at 72 h < 30 µM? input = CC1(C)[C@@H](O)CC[C@]2(C)[C@H]3CC[C@@H]4[C@H]5[C@H](c6ccc7c(c6)C(=O)N(c6ccc(C#N)cc6)C7=O)CC[C@]5(C(=O)O)CC[C@@]4(C)[C@]3(C)CC[C@@H]12
Not met

# strict comparison: is reported IC50 at 72 h < 30 µM? input = CC(=O)O[C@H]1CC[C@]2(C)[C@H]3CC[C@@H]4[C@H]5[C@H](c6cc7c(c(-c8ccccc8)c6)C(=O)N(c6cc[nH]n6)C7=O)CC[C@]5(C(=O)O)CC[C@@]4(C)[C@]3(C)CC[C@H]2C1(C)C
Met

# strict comparison: is reported IC50 at 72 h < 30 µM? input = COc1ccc(N2C(=O)c3ccc([C@@H]4CC[C@]5(CO)CC[C@]6(C)[C@H](CC[C@@H]7[C@@]8(C)CC[C@H](OC(C)=O)C(C)(C)[C@@H]8CC[C@]76C)[C@@H]45)cc3C2=O)cc1
Not met

# strict comparison: is reported IC50 at 72 h < 30 µM? input = CC1(C)[C@@H](O)CC[C@]2(C)[C@H]3CC[C@@H]4[C@H]5[C@H](c6cc7c(c(-c8ccccc8)c6)C(=O)N(c6ccccc6)C7=O)CC[C@]5(C(=O)O)CC[C@@]4(C)[C@]3(C)CC[C@@H]12
Not met

As a next step, examine the molecule that follows.
# strict comparison: is reported IC50 at 72 h < 30 µM? input = CC1(C)[C@@H](O)CC[C@]2(C)[C@H]3CC[C@@H]4[C@H]5[C@H](c6ccc(C#N)c(C#N)c6)CC[C@]5(C(=O)O)CC[C@@]4(C)[C@]3(C)CC[C@@H]12
Met

###

Experiment: Cytotoxicity against human K562-Tax cells assessed as inhibition of cell growth incubated for 72 hrs by MTS assay
Format: functional, cell-based
Value Type: pIC50
Interpret pIC50 as the negative base-10 log of the concentration measured in mol/L.

I have this compound here, CC(=O)Nc1ccc(N2C(=O)c3ccc([C@@H]4CC[C@]5(C(=O)O)CC[C@]6(C)[C@H](CC[C@@H]7[C@@]8(C)CC[C@H](OC(C)=O)C(C)(C)[C@@H]8CC[C@]76C)[C@@H]45)cc3C2=O)cc1 , and I need its recorded pIC50.
4.74

###

System: CCRF-CEM
Assay: Induction of apoptosis in human CCRF-CEM cells assessed as viable cells at 1 times IC50 incubated for 24 hrs by Annexin V-FITC and PI staining based flow cytometric analysis (reference value: 97.4 %)
Assay type: functional
Collected Activity values appear next to each entry.
Kindly provide the numeric value in % only, without the unit symbol.

I have this compound here, CC(=O)O[C@H]1CC[C@]2(C)[C@H]3CC[C@@H]4[C@H]5[C@H](c6cc7c(c(-c8ccccc8)c6)C(=O)N(c6cc[nH]n6)C7=O)CC[C@]5(C(=O)O)CC[C@@]4(C)[C@]3(C)CC[C@H]2C1(C)C , and I need its recorded Activity.
92.8

I have this compound here, CC1(C)[C@@H](O)CC[C@]2(C)[C@H]3CC[C@@H]4[C@H]5[C@H](c6cc7c(c(-c8ccccc8)c6)C(=O)N(c6ccccc6)C7=O)CC[C@]5(C(=O)O)CC[C@@]4(C)[C@]3(C)CC[C@@H]12 , and I need its recorded Activity.
90.7

I have this compound here, CC(=O)O[C@H]1CC[C@]2(C)[C@H]3CC[C@@H]4[C@H]5[C@H](c6cc7c(c(-c8ccccc8)c6)C(=O)N(c6nccs6)C7=O)CC[C@]5(C(=O)O)CC[C@@]4(C)[C@]3(C)CC[C@H]2C1(C)C , and I need its recorded Activity.
92.3

Could you now consider this next compound?
I have this compound here, CC1(C)[C@@H](O)CC[C@]2(C)[C@H]3CC[C@@H]4[C@H]5[C@H](c6cc7c(c(-c8ccccc8)c6)C(=O)N(c6ccc(N)cc6)C7=O)CC[C@]5(C(=O)O)CC[C@@]4(C)[C@]3(C)CC[C@@H]12 , and I need its recorded Activity.
92.4

###

Collected remaining at 1 h, 2 µM values appear next to each entry.
Test: Stability in human plasma assessed as compound remaining at 2 uM incubated for 60 mins by RF-MS analysis
Format: ADME, cell-free
Details: read-out: Stability
Quick note: number first, unit second.

I have this molecule here, CC1(C)[C@@H](O)CC[C@]2(C)[C@H]3CC[C@@H]4[C@H]5[C@H](c6cc7c(c(-c8ccccc8)c6)C(=O)N(c6ccccc6)C7=O)CC[C@]5(C(=O)O)CC[C@@]4(C)[C@]3(C)CC[C@@H]12 , and I need its recorded remaining at 1 h, 2 µM.
100%

I have this molecule here, CC(=O)O[C@H]1CC[C@]2(C)[C@H]3CC[C@@H]4[C@H]5[C@H](c6cc7c(c(-c8ccccc8)c6)C(=O)N(c6nccs6)C7=O)CC[C@]5(C(=O)O)CC[C@@]4(C)[C@]3(C)CC[C@H]2C1(C)C , and I need its recorded remaining at 1 h, 2 µM.
96%

I have this molecule here, CC1(C)[C@@H](O)CC[C@]2(C)[C@H]3CC[C@@H]4[C@H]5[C@H](c6cc7c(c(-c8ccccc8)c6)C(=O)N(c6ccc(N)cc6)C7=O)CC[C@]5(C(=O)O)CC[C@@]4(C)[C@]3(C)CC[C@@H]12 , and I need its recorded remaining at 1 h, 2 µM.
93%

Could you now consider this next molecule?
I have this molecule here, CC(=O)O[C@H]1CC[C@]2(C)[C@H]3CC[C@@H]4[C@H]5[C@H](c6cc7c(c(-c8ccccc8)c6)C(=O)N(c6cc[nH]n6)C7=O)CC[C@]5(C(=O)O)CC[C@@]4(C)[C@]3(C)CC[C@H]2C1(C)C , and I need its recorded remaining at 1 h, 2 µM.
92%

FYI, the data here is from ChEMBL document CHEMBL6078712.
